Attribution: PubChem BioAssay (NCI)

// values below are reported growth inhibition
- PROTOCOL: NCI Yeast Anticancer Drug Screen. Data for the wt2 strain (AID 169);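 also: 0% = growth of vehicle-treated yeast cultures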
- CONDITION_INFO: S. cerevisiae wt2 strain growth inhibition; at 33.0 µM; hits give high values
Compounds without any hit were thinned out: in the full panel of roughly 79,000, 15% have a hit.
Hi! Could you send only the number? It should be in %, unit omitted.

Some compounds with recorded growth inhibition:
COMPOUND: CC(=O)Nc1ccc(/C=C(\C#N)c2ccc(C)cc2)cc1
QUANTITY_KIND: growth inhibition
QUANTITY_UNIT: %
REPORTED_VALUE: 5
--
COMPOUND: O=C1OC(CCl)CN1/N=C/c1ccc([N+](=O)[O-])o1 (stereo not drawn)
QUANTITY_KIND: growth inhibition
QUANTITY_UNIT: %
REPORTED_VALUE: 54
--
COMPOUND: CC1(C)C(=O)OC(n2cc(F)c(=O)[nH]c2=O)C1=O (stereo not drawn)
QUANTITY_KIND: growth inhibition
QUANTITY_UNIT: %
REPORTED_VALUE: 43
--
COMPOUND: CC(C)OC(=O)Oc1ccccc1OC(=O)OC(C)C
QUANTITY_KIND: growth inhibition
QUANTITY_UNIT: %
REPORTED_VALUE: -3
--
COMPOUND: CC(C)C1=CC2=C[C@H](O)[C@H]3C(C)(C)CCC[C@]3(C)C2=C(O)C1=O
QUANTITY_KIND: growth inhibition
QUANTITY_UNIT: %
REPORTED_VALUE: 98
--
COMPOUND: O=C1C(=O)c2ccccc2C=C1[N+](=O)[O-]
QUANTITY_KIND: growth inhibition
QUANTITY_UNIT: %
REPORTED_VALUE: 28

-- ask growth inhibition lookup needed for CCOC(=O)[C@H]1Nc2ccccc2C2c3ccccc3CC21 (stereo partly drawn) , thanks.
-- reply 44

-- ask Same question, CCN(CC)C(C)(C)C(=O)/C=C/c1ccccc1 this time
-- reply 3

-- ask What about this compound? Cc1cc(S(=O)(=O)/N=C(/NN)NNc2cccc(C(F)(F)F)n2)c(S)cc1Cl
-- reply -5

-- ask Thanks! And Clc1ccc(SC(/C=C/NNC2=NC(c3ccccc3)C(c3ccccc3)=NN2)c2ccccc2)cc1 (stereo not drawn) ?
-- reply 29

-- ask Now the compound Nc1nc(-c2cccnc2)cc(-c2cc(-c3cccnc3)nc(N)n2)n1
-- reply -1

-- ask How about this compound: N#Cc1ccc(C2NN=CC23C(=O)c2ccccc2OC3c2ccccc2)cc1 (stereo not drawn)
-- reply 1

-- ask Can you check O=Nc1c(NO)ccc2nn(-c3ccccc3)nc12 next?
-- reply 99
